tested on: Clone20 osteoblast Shn3 3'UTR firefly luciferase, 24 h; assay: Shn3 3'UTR reporter inhibitors, dose response, cell-based, Clone20 osteoblasts, luminescence, dry powder, set 2 (AID 743417)
Inconclusive results are not listed.
QUANTITY: AC50

The following molecules have reported results that may help.
MOLECULE	AC50
Cc1ccccc1CN1CC2=C(CCN(Cc3ccccc3)C2=O)N2CCN=C12	2.41 µM
COC(=O)c1c(-c2cccc3ccccc23)csc1NC(=O)Cc1ccc(OC)c(OC)c1	5.43 µM
COc1ccc(CCN2CCC(Nc3nc4ccccc4n3Cc3ccc(F)cc3)CC2)cc1	3.03 µM
Cc1cc(N2CCCCC2)nc(NCc2ccccc2)n1	4.01 µM
COc1ccccc1CNc1nc(NCc2ccccc2OC)c2sccc2n1	6.33 µM
CC(C)(C)Nc1nc(-c2ccccn2)nc2ccccc12	1.86 µM
C[C@@H]1C[C@@H]2O[C@H]2/C=C\C=C\C(=O)Cc2c(Cl)c(O)cc(O)c2C(=O)O1	6.4 µM
CCC(CC)CN1C(N(C)C)=NC[C@@H]1CC(C)C	0.717 µM

Prompt: Name the reported AC50 value associated with the molecule CCCCCn1c(=O)c(C(=O)NC(C)c2ccccc2)c(O)c2ccccc21 (stereo unspecified)
Response: 11.7 µM

Prompt: Name the reported AC50 value associated with the molecule Cc1ccc(NC(=O)c2cc(S(=O)(=O)NCCC3=CCCCC3)ccc2F)cc1F
Response: 4.13 µM

Prompt: Name the reported AC50 value associated with the molecule CCS(=O)(=O)c1ncc(Cl)c(C(=O)Nc2ccc(S(=O)(=O)N(C)c3ccccc3)cc2)n1
Response: 0.308 µM

Prompt: Name the reported AC50 value associated with the molecule COc1cccc(N2CCN(c3ncnc4c3cnn4-c3ccc(C)cc3C)CC2)c1
Response: 4.65 µM

Prompt: Name the reported AC50 value associated with the molecule Cc1cc(NC(=O)CCCS(=O)(=O)c2nc(-c3cccs3)cc(C(F)(F)F)n2)no1
Response: 1.73 µM

Prompt: Name the reported AC50 value associated with the molecule O=c1[nH]c2ccccc2n1C1CCN(C(CCc2ccccc2)c2nnnn2Cc2ccccc2)CC1 (stereo unspecified)
Response: 1.23 µM

Prompt: Name the reported AC50 value associated with the molecule CCOC(=O)c1cn(CC(=O)Nc2cccc(Cl)c2C)nn1
Response: 4.65 µM

Prompt: Name the reported AC50 value associated with the molecule COc1ccc(CCNc2ncnc3c2oc2ccccc23)cc1OC
Response: 0.524 µM

Prompt: Name the reported AC50 value associated with the molecule Cc1ccc(C(C)C)cc1NC(=O)Nc1ccc([N+](=O)[O-])cc1
Response: 7.19 µM

Prompt: Name the reported AC50 value associated with the molecule CS(=O)(=O)N1CCN(c2ccc(NC(=O)c3ccc([N+](=O)[O-])o3)cc2)CC1
Response: 5.65 µM
